Let's look at some compounds and their measured Percent Effect.
target: Protein translocase subunit SecA (Escherichia coli (strain K12)); test: Assay to Identify E. coli SecA ATPase Inhibitors; assay type: functional; parameters: scale not given: direction of the effect not stated beside the values; conditions: 30 µM
Measured potencies and affinities stand elsewhere.
Give the number first and the unit second.

These recorded examples may help you get a feel for the data.
- Compound: "O=C(CCc1cc2n(n1)CCCN(Cc1ccccc1F)C2)NC1CC1"
  Percent Effect: "-3.75%"
- Compound: "c1nc2c(c(C3CC3)n1)CCN(Cc1ccc3c(c1)OCO3)CC2"
  Percent Effect: "-2.79%"
- Compound: "c1ccc2sc(N3CCOC(Cn4cccn4)C3)nc2c1 (stereo unspecified)"
  Percent Effect: "-6.09%"
- Compound: "CC(O)CN1CCN(Cc2csc(-c3ncccn3)n2)CC1 (stereo unspecified)"
  Percent Effect: "1.21%"
- Compound: "CC(C)CN1Cc2c(C(=O)N(C)C)ncn2-c2ccccc2S1(=O)=O"
  Percent Effect: "-3.52%"

-- ask Give Percent Effect (Protein translocase subunit SecA (Escherichia coli (strain K12))) of the following compound: c1cnn(Cc2nnc(C3CCN(C4CCOCC4)CC3)n2C2CC2)c1
-- reply -7.04%

-- ask Give Percent Effect (Protein translocase subunit SecA (Escherichia coli (strain K12))) of the following compound: Cc1nc(C)n(CC2CCCN(Cc3nc(C)c(C)o3)C2)n1 (stereo unspecified)
-- reply -2.17%

-- ask Give Percent Effect (Protein translocase subunit SecA (Escherichia coli (strain K12))) of the following compound: O=C(c1cccs1)N1CCC(O)(CN2CCc3ccccc3C2)C1 (stereo unspecified)
-- reply -1.45%

-- ask Give Percent Effect (Protein translocase subunit SecA (Escherichia coli (strain K12))) of the following compound: CC(NC(=O)N1CCC(n2cncn2)CC1)c1ccc(F)cc1F (stereo unspecified)
-- reply -3.51%

-- ask Give Percent Effect (Protein translocase subunit SecA (Escherichia coli (strain K12))) of the following compound: O=C(NCCCN1CCOCC1)c1cc(-c2ccco2)[nH]n1
-- reply -3.38%

-- ask Give Percent Effect (Protein translocase subunit SecA (Escherichia coli (strain K12))) of the following compound: CC(=O)N1CCCN(C(=O)NCc2cc[nH]n2)CC1
-- reply -8.38%

---

target: Ubiquitin-activating enzyme e1, putative (Leishmania donovani (strain BPK282A1)); test: Leishmania donovani Ubiquitin Activating Enzyme (LdE1); type: functional; set-up: scale not given: direction of the effect not stated beside the values; conditions: 30 µM
Potency and affinity values are given separately.
Readout name: Percent Effect (%)
Only the number, expressed in %, is required.

These recorded examples may help you get a feel for the data.
- Molecule: "Cc1noc(CCCC(=O)NC(C)c2ccccn2)n1 (stereo unspecified)"
  Percent Effect, %: 18.4
- Molecule: "COc1ccc(C2CCCN2S(=O)(=O)N(C)CC(C)C)cc1 (stereo unspecified)"
  Percent Effect, %: -6.94
- Molecule: "CNc1nc(CNC(=O)Nc2ccccc2-c2noc(C)n2)cs1"
  Percent Effect, %: -2.63
- Molecule: "O=C(NCC(O)c1ccc(F)c(F)c1)c1cccnc1O (stereo unspecified)"
  Percent Effect, %: 13.7
- Molecule: "Cc1noc(C)c1-c1cccc(CC2CCN(C(=O)c3cc[nH]n3)C2)n1 (stereo unspecified)"
  Percent Effect, %: 10.7
- Molecule: "CNC(=O)NC(=O)CN1CCC(c2c[nH]c3ccc(OC)cc23)CC1"
  Percent Effect, %: 10.7

-- ask Give Percent Effect (Ubiquitin-activating enzyme e1, putative (Leishmania donovani (strain BPK282A1))) of the following molecule: Cc1ccc(CNC(=O)N(Cc2ccccc2F)C2CC2)cn1
-- reply 2.67

-- ask Give Percent Effect (Ubiquitin-activating enzyme e1, putative (Leishmania donovani (strain BPK282A1))) of the following molecule: Cc1ccc(NC(=O)N2CCOC(C)C2)cc1Cl (stereo unspecified)
-- reply 16.4

-- ask Give Percent Effect (Ubiquitin-activating enzyme e1, putative (Leishmania donovani (strain BPK282A1))) of the following molecule: Cc1cc(-c2nnn(CCNS(C)(=O)=O)n2)ccc1F
-- reply 5.48

-- ask Give Percent Effect (Ubiquitin-activating enzyme e1, putative (Leishmania donovani (strain BPK282A1))) of the following molecule: O[C@H]1[C@H](n2cc(-c3cccnc3)nn2)c2ccccc2C12CCNCC2
-- reply 4.17

-- ask Give Percent Effect (Ubiquitin-activating enzyme e1, putative (Leishmania donovani (strain BPK282A1))) of the following molecule: C[C@@H]1CN(C(=O)NC2CC2)C[C@]12CCN(c1ccsc1)C2=O
-- reply 5.33

---

Molecular target: Ubiquitin-activating enzyme e1, putative (Leishmania donovani (strain BPK282A1)) (UniProt E9BSI1)
Sequence (whole entry): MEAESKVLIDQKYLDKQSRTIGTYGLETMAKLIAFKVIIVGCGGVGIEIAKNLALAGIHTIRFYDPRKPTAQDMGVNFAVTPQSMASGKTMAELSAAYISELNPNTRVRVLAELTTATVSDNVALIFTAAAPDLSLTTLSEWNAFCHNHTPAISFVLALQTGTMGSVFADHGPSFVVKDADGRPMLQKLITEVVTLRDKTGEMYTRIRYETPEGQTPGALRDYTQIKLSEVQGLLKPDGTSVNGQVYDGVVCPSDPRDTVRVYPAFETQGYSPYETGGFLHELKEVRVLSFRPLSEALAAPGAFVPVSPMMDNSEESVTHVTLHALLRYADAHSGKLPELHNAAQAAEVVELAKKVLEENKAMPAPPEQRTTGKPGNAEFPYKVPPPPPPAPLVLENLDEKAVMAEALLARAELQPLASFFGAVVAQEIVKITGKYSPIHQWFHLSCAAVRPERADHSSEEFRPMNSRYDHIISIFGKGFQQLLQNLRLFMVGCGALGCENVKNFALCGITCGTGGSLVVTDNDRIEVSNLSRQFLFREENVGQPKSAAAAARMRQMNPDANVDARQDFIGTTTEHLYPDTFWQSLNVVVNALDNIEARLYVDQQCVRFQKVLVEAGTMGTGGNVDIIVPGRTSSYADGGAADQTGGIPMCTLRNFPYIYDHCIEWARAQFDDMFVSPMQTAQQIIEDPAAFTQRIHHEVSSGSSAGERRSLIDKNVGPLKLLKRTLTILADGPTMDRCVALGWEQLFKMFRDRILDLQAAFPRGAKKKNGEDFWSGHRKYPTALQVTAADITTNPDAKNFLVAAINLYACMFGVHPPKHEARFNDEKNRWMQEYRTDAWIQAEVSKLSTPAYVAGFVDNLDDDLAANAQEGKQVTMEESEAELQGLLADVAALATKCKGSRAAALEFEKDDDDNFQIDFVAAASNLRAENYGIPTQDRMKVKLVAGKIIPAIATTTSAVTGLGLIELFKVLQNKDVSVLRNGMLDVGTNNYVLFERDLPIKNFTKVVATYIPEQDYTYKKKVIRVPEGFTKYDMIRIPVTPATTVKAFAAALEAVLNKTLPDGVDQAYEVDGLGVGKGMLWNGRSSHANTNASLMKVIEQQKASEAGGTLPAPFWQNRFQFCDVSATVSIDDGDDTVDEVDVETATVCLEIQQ
Assay: Leishmania donovani Ubiquitin Activating Enzyme (LdE1)
Format: functional
Parameters: scale not given: direction of the effect not stated beside the values
Conditions: 30 µM
Entries with a potency or affinity are not part of this list.
Readout name: Percent Effect (%)
Only the number, expressed in %, is required.

- Compound: "c1cnn(CC2CN(CC3CCCC3)CCO2)c1 (configuration not stated)"
  Readout name: "Percent Effect"
  Numeric result: 3.8
- Compound: "CC(C)c1nn(C)c(N(C)C)c1CNCc1ccc2c(c1)OCO2"
  Readout name: "Percent Effect"
  Numeric result: 7.89
- Compound: "CC(=O)Nc1nc(C(=O)N2CCCC(c3cc(C)[nH]n3)C2)cs1 (configuration not stated)"
  Readout name: "Percent Effect"
  Numeric result: -28.9
- Compound: "Cc1csc(CNC(=O)NC2CCN(c3ncccn3)CC2)n1"
  Readout name: "Percent Effect"
  Numeric result: 11
- Compound: "Cc1ccoc1C(=O)N1CC[C@H]2OCC[C@@]2(COCc2ccncc2)C1"
  Readout name: "Percent Effect"
  Numeric result: 15.6

-- ask I'd like to know its Percent Effect. The compound in question is Cc1cc(NC(=O)CN2CCc3cnc(C)nc3C2)on1
-- reply 5.26

-- ask I'd like to know its Percent Effect. The compound in question is c1cnc2c(C3CCN(Cc4ccsc4)CC3)n[nH]c2n1
-- reply 20.3

-- ask I'd like to know its Percent Effect. The compound in question is Cc1cc(C)n(C2CN(CC(=O)NC3CCOCC3)C2)n1
-- reply 6.33

-- ask I'd like to know its Percent Effect. The compound in question is Cc1cc(C(=O)N2CCCC(n3ccnc3C)C2)c(C)s1 (configuration not stated)
-- reply -5.26

---

Let's look at some molecules and their measured Percent Effect.
target: Tyrosyl-tRNA synthetase, putative (Trypanosoma cruzi (strain CL Brener)); assay: Trypanosoma cruzi tyrosyl tRNA synthetase (TcYRS) _High Tyrosine SOP; assay type: functional; parameters: scale not given: in the data most compounds retested in dose-response had high values; settings: 30 µM
Only the number, expressed in %, is required.

These recorded examples may help you get a feel for the data.
- Molecule: "Cc1cc(C(C)NC(=O)N2CCC(n3cncn3)CC2)c(C)s1 (configuration not stated)"
  Percent Effect [%]: 1.48
- Molecule: "CC[C@@]1(O)CCN(C(=O)c2ccc(-c3cccc(F)c3)cc2)C[C@H]1O"
  Percent Effect [%]: 2.1
- Molecule: "CN(Cc1ccco1)[C@@H]1CN(Cc2ccco2)[C@@H]2CCCO[C@H]12"
  Percent Effect [%]: 4.25
- Molecule: "Cc1nnc2n1CCN(CCS(=O)(=O)c1ccccc1)C2"
  Percent Effect [%]: 2.91
- Molecule: "COCCc1noc(CNC2CCc3nc(C(C)C)nn3C2)n1 (configuration not stated)"
  Percent Effect [%]: 0.952
- Molecule: "c1ccc(N2CCCC3(COCCN(c4nccs4)C3)C2)nc1 (configuration not stated)"
  Percent Effect [%]: 16.7
- Molecule: "Fc1ccc(CN2CC[C@H]3O[C@@H](COCC4CCOCC4)CC[C@H]32)cc1"
  Percent Effect [%]: -1.06
- Molecule: "Cc1ccc(C(=O)N2CCCC(NC(=O)C(C)C)C2)c(O)c1 (configuration not stated)"
  Percent Effect [%]: 8.37
- Molecule: "Cn1c(CN2CCOC(c3nc(C(C)(C)C)n[nH]3)C2)nnc1C1CC1 (configuration not stated)"
  Percent Effect [%]: 3.81
- Molecule: "CCN(CC)CC1CN(CCc2ccccc2)Cc2nccn2C1 (configuration not stated)"
  Percent Effect [%]: 7.29

-- ask I'd like to know its Percent Effect. The molecule in question is CCS(=O)(=O)c1ccccc1N1CCC(NC(=O)NC2CCCC2)CC1
-- reply 6.93

-- ask I'd like to know its Percent Effect. The molecule in question is O=C(Nc1ccccc1F)N(CCO)Cc1ccsc1
-- reply -1.47

-- ask I'd like to know its Percent Effect. The molecule in question is O=C(CCOc1ccccc1)N1CCC(Nc2cccnn2)CC1
-- reply 6.4

-- ask I'd like to know its Percent Effect. The molecule in question is CCn1nccc1CNC(=O)C(C)n1cc2c(n1)c(C)nn2C (configuration not stated)
-- reply 5.29

-- ask I'd like to know its Percent Effect. The molecule in question is O=C(CN(Cc1ccccc1)CC1CCOCC1)NC(=O)NC1CC1
-- reply 1.04

-- ask I'd like to know its Percent Effect. The molecule in question is CNc1cc(CNC(=O)c2ccccc2)nc(-c2ccncc2)n1
-- reply 5.38

# credit: ChEMBL document CHEMBL3988442
